Target desc: TYK2 (Homo sapiens, UniProt P29597)
Sequence (P29597 whole entry): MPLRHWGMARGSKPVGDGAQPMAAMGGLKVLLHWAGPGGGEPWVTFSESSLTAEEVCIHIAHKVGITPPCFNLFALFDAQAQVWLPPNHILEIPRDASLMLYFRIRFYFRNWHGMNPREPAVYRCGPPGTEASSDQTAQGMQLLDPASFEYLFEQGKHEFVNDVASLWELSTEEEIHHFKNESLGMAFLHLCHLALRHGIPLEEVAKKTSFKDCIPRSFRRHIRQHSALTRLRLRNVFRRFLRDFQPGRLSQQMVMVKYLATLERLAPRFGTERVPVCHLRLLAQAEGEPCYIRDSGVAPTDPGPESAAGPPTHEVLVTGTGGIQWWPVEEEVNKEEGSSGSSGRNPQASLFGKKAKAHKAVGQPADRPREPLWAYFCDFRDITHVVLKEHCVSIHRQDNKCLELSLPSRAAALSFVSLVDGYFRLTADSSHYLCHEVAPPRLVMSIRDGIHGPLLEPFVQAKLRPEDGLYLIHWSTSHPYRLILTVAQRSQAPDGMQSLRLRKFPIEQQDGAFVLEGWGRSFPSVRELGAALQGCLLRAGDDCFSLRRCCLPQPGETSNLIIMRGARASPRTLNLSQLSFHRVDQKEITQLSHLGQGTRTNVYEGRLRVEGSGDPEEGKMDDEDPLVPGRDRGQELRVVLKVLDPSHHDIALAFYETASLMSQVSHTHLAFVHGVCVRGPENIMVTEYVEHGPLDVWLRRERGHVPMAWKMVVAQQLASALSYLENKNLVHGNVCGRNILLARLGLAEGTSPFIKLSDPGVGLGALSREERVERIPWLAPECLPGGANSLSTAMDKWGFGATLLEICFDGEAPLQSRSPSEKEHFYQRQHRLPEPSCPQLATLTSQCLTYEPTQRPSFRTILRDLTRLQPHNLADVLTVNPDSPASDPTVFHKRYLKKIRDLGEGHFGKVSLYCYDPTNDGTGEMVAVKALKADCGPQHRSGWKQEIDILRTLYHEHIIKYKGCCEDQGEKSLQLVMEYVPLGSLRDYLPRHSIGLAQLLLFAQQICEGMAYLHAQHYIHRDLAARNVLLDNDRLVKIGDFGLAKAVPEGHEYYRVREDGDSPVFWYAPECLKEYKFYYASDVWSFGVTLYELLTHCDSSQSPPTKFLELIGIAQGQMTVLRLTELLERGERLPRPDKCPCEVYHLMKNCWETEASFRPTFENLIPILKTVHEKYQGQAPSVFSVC
Assay explanation: TYK2 degradation MSD assay in EBV-B cells
Assay type: cell-based
Set-up: endogenous in cells; host or cells: EBV-B cells
Measurement parameters: 4 to 24 hours incubation, read-out: TYK2 MSD DC50 rating in EBV-B
Catalogue of compounds with associated DC50

Worked set:
- Compound: "CNc1cc(Nc2cccn(-c3ccc(C(=O)N(C)C4CCN(c5ccc(-c6ccc7c(c6)n(C)c(=O)n7C6CCC(=O)NC6=O)cc5)C4)cn3)c2=O)nn2c(C(=O)N[C@@H]3C[C@@H]3F)cnc12 (stereo partly drawn)"
  DC50: "> 100 nM"
- Compound: "CNc1cc(Nc2cccc(-c3ccc(C(=O)N4CCN([C@H]5CC[C@H](c6ccc(-c7ccc8c(c7)n(C)c(=O)n8C7CCC(=O)NC7=O)cc6)CC5)CC4)cn3)c2)nn2c(C(=O)N[C@@H]3C[C@@H]3F)cnc12 (stereo partly drawn)"
  DC50: "> 100 nM"

Continue with the compound presented below.
Q: Which measured DC50 belongs to CNc1cc(Nc2cccc(N3CCC(CN4CCN(c5ccc(-c6ccc7c(c6)n(C)c(=O)n7C6CCC(=O)NC6=O)cc5)CC4)CC3)c2)nn2c(C(=O)N[C@@H]3C[C@@H]3F)cnc12 (stereo partly drawn) , tested on TYK2 (Homo sapiens, UniProt P29597)?
Ans: > 100 nM
